All figures here come from patent US20240208912A1.

// pIC50 lookup, one value per entry
# systemTested: PRMT5/MEP50 complex (Homo sapiens)
# Construct: purchased Reaction Biology Corporation
# Sequence (O14744 2-637 limits assumed): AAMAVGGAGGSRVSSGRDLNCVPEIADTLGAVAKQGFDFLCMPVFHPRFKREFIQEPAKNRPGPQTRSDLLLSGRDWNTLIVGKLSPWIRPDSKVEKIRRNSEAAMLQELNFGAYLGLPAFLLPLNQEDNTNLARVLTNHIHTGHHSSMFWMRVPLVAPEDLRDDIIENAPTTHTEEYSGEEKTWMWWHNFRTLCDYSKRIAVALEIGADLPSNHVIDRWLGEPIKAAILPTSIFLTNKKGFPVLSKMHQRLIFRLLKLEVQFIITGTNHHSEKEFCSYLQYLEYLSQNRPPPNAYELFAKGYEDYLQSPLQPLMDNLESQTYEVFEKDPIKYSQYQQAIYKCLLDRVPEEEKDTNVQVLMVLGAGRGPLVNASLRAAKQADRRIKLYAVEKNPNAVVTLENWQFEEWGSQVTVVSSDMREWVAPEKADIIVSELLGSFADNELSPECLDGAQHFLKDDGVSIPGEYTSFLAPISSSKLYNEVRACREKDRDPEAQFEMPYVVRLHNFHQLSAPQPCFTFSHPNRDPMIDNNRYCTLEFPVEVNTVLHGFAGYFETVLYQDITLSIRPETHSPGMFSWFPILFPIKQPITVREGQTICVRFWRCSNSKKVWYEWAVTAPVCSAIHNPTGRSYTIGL
# Sequence (Q9BQA1 2-342 partner limits assumed): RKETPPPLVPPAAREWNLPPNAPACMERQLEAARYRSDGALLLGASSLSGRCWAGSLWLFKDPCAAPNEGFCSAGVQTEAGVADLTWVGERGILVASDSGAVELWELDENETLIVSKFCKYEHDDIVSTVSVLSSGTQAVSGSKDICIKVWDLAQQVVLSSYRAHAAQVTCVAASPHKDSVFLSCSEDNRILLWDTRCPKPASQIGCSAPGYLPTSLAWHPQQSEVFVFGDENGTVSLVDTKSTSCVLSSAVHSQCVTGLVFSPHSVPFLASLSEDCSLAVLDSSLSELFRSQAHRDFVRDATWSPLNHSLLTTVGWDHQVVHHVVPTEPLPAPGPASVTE
# experimentalProtocol: PRMT5:MEP50 HotSpot Assay (full-length histone H2A substrate, plus and minus MTA)
# Format: biochemical
# reportedConditions: IC50 + 2 μM MTA, in the presence of 2 μM MTA
A value of pIC50 is the negative decimal logarithm of a concentration given in moles per litre.

Worked cases, answers included:
Cc1cnc2cc(F)c(-c3c(-c4ccc5c(=O)[nH]nc(CN)c5c4)cnn3C)c(C#N)c2c1 (atropisomer, axis not shown; (M)) [Example 16-35] = 7.08
Cc1cc(-c2cnn(C)c2-c2c(F)ccc(OC3CC3)c2C#N)cc2c(CN)n[nH]c(=O)c12 (atropisomer, axis not shown; (M)) [Example 16-48] = 6.89

Sample Cc1cnc2c(C#N)c(-c3c(-c4ccc5c(=O)[nH]nc(CN)c5c4)cnn3C)c(F)c(C)c2c1 (atropisomer, axis not shown; (M)) [Example 16-94] ; pIC50 observed: 5.94

Sample Cn1ncc(-c2ccc3c(=O)[nH]nc(CN)c3c2)c1-c1sc2cc(Cl)ccc2c1C#N ; pIC50 observed: 6.99

Sample Cc1cc(-c2cnn(C)c2-c2c(F)cc3ncc(Cl)cc3c2C#N)cc2c(CN)n[nH]c(=O)c12 (single isomer, unassigned) [Example 16-50] ; pIC50 observed: 7.44

Sample Cn1ncc(-c2ccc3c(=O)[nH]nc(CN)c3c2)c1-c1c(Cl)cc2ccccc2c1C#N (single isomer, unassigned) [Example 16-128] ; pIC50 observed: 7.19

Sample Cn1ncc(-c2ccc3c(=O)[nH]nc(CN)c3c2)c1-c1c(C#N)ccc2c1COC2 (single isomer, unassigned) [Example 16-70] ; pIC50 observed: 6.27

Sample Cn1ncc(-c2ccc3c(=O)[nH]nc(CN)c3c2)c1-c1c(C#N)cc2[nH]cnc2c1Cl (atropisomer, axis not shown; (P)) [Example 16-116] ; pIC50 observed: 6.32

Sample Cc1c(F)c(-c2c(-c3ccc4c(=O)[nH]nc(CN)c4c3)cnn2C)c(C#N)c2ccccc12 (single isomer, unassigned) [Example 16-14] ; pIC50 observed: 7.91
